Biological target: T1, IL-6 receptor on DS-1 cells (ATCC CRL 11102) (UniProt P08887 20-468, limits assumed)
T1 sequence (looked up): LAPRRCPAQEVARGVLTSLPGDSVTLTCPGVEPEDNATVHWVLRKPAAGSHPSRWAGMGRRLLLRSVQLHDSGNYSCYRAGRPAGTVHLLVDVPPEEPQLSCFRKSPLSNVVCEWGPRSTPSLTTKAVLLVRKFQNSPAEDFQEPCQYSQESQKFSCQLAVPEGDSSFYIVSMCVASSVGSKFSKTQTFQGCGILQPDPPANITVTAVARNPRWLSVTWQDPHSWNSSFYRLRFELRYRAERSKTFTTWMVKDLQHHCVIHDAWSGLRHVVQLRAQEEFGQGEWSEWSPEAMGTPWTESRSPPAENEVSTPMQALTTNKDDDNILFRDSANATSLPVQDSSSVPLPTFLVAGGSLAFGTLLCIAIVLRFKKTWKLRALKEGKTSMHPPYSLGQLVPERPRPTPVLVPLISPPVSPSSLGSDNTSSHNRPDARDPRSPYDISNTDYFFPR
Test: cell-based or functional assay
readout label: IC50 (µg/ml), inhibition of DS-1 cell proliferation, MTS assay, IL6 2 ng/mL (µg/mL)
Supply the numeric figure in µg/mL, leaving out any unit text.

Example entries begin here.
binder: 204# (antibody, human IgG1, kappa, V domains shown) VH: QVQLQESGPGLVRPSQTLSLTCTVSGYSITSDHAWSWVRQPPGRGLEWIGFISYSGMTTYNPSLKSRVTMLRDTSKNQFSLRLSSVTAADTAVYYCARCLARITAMDYWGQGSLVTVSS VL: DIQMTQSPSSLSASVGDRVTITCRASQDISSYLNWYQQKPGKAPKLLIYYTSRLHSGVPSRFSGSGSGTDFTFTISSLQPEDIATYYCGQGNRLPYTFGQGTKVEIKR
endpoint result: 0.0362

binder: Tocilizumab (antibody, human IgG1, kappa, V domains shown, also called 25; 25(control)) VH: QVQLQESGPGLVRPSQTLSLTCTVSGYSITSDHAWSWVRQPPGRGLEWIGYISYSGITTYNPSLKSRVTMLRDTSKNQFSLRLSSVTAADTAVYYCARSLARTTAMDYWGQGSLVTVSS VL: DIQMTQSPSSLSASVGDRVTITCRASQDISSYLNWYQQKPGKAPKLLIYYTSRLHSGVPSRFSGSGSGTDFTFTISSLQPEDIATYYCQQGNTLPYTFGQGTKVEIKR
endpoint result: 0.33

binder: 202# (antibody, human IgG1, kappa, V domains shown) VH: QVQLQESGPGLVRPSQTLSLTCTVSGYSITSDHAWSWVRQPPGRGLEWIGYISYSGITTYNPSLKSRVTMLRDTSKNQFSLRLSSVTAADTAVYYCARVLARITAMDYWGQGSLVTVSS VL: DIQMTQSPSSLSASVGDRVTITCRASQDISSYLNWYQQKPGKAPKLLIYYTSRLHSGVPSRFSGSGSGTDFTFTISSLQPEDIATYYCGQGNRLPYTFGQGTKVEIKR
endpoint result: 0.0686

For 206# (antibody, human IgG1, kappa, V domains shown, also called Sample # 206) VH: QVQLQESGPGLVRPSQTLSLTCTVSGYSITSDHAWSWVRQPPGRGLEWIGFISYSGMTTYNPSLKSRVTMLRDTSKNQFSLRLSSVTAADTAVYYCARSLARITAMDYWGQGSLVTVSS VL: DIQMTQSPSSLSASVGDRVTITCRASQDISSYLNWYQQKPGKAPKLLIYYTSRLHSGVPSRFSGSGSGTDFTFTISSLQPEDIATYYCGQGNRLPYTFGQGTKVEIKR the binder record lists IC50 (µg/ml), inhibition of DS-1 cell proliferation, MTS assay, IL6 2 ng/mL as 0.0339
